attribute_measured: IC50 (nM)
The reply should be a number in nM, with the unit left off.

Simply: CC(C)(C#N)c1nnc(-c2ccc3c(c2)N(Cc2ccc(-c4noc(C5CCC(F)(F)CC5)n4)cc2)C(=O)[C@@H](N)CS3(=O)=O)o1 , DGKζ (hDGKzeta(1-928)-N-His) (Homo sapiens, UniProt Q13574), IC50 = 192

The measured IC50 that CC1(c2nnc(-c3ccc4c(c3)N(Cc3ccc(-c5ccc(C(F)(F)F)cc5)cc3)C(=O)[C@@H](N)CS4(=O)=O)o2)CCO1 (stereo partly drawn) showed for DGKζ (hDGKzeta(1-928)-N-His) (Homo sapiens, UniProt Q13574) is 1590

Summary: CC(C)(C)c1nnc(-c2ccc3c(c2)N(Cc2ccc(-c4ncc(C(F)(F)F)o4)cc2)C(=O)[C@@H](N)CS3(=O)=O)o1 , DGKζ (hDGKzeta(1-928)-N-His) (Homo sapiens, UniProt Q13574), IC50 = 485

Item CC(N)(c1nnc(-c2ccc3c(c2)N(Cc2ccc(-c4noc(C(F)(F)F)n4)cc2)C(=O)[C@@H](N)CS3(=O)=O)o1)C(F)(F)F (stereo partly drawn) ; assay system DGKζ (hDGKzeta(1-928)-N-His) (Homo sapiens, UniProt Q13574); IC50 reported as 1740

Record N#CC1(c2nnc(-c3ccc4c(c3)N(Cc3ccc(-c5ccc(OC(F)(F)F)cn5)cc3)C(=O)[C@@H](N)CS4(=O)=O)o2)CCOCC1 has DGKζ (hDGKzeta(1-928)-N-His) (Homo sapiens, UniProt Q13574) IC50 equal to 416

Case Cc1cc(-c2ccc(CN3C(=O)[C@@H](N)CS(=O)(=O)c4ccc(-c5nnc(C(C)(C)C#N)o5)cc43)cc2)ncc1OC(F)(F)F , DGKζ (hDGKzeta(1-928)-N-His) (Homo sapiens, UniProt Q13574), IC50 recorded as 860

====

Provide the recorded Emax IL2 (% activation) for the entries that follow.
- Test system: primary human T-cells
- assay_procedure: IL2 secretion measurements (24 h, CD3-stimulated T-cells, PBS counter screen)
- Format: cell-based
- measurement_parameters: CD3 condition; normalised to DMSO (neutral) and 20 μM reference compound A1 = 100%
Number in % activation, nothing else.

# Emax IL2 (% activation) of CC1(c2nnc(-c3ccc4c(c3)N(Cc3ccc(-c5ccc(C(F)(F)F)cn5)cc3)C(=O)[C@@H](N)CS4(=O)=O)o2)COC1 = 35

// field: Emax IL2 (% activation); key: N[C@H]1CS(=O)(=O)c2ccc(-c3nnc(N4CCC(F)(F)CC4)o3)cc2N(Cc2ccc(-c3ccc(C(F)(F)F)cn3)cc2)C1=O ; value = 55

The reported value for CC(C)(C#N)c1nnc(-c2ccc3c(c2)N(Cc2ccc(-c4cnn(C(F)(F)F)c4)cc2)C(=O)[C@@H](N)CS3(=O)=O)o1 in terms of Emax IL2 (% activation) is 112

Memo: N#CC1(c2nc(-c3cc4c(cc3F)S(=O)(=O)C[C@H](N)C(=O)N4Cc3ccc(-c4ccc(C(F)(F)F)cn4)cc3)no2)CC1 , reported Emax IL2 (% activation): 221

Emax IL2 (% activation) reading for N[C@H]1CS(=O)(=O)c2ccc(-c3nnc(C4(C5CC5)CCCO4)o3)cc2N(Cc2ccc(-c3nnc(C(F)(F)F)o3)cc2)C1=O (stereo partly drawn) : 115

Query N[C@H]1CS(=O)(=O)c2cc(F)c(-c3noc(N4CCCC4)n3)cc2N(Cc2ccc(-c3noc(C(F)(F)F)n3)nc2)C1=O yields Emax IL2 (% activation) of 39

Reported Emax IL2 (% activation) of NC(c1nnc(-c2ccc3c(c2)N(Cc2ccc(-c4ccc(C(F)(F)F)cc4)cc2)C(=O)[C@@H](N)CS3(=O)=O)o1)C(F)(F)F (stereo partly drawn) : 65

molecule N[C@H]1CS(=O)(=O)c2ccc(-c3nnc(N4CCC(F)(F)CC4)o3)cc2N(Cc2ccc(-c3noc(C4CC4)n3)cc2)C1=O , Emax IL2 (% activation) observed: 83

Reported Emax IL2 (% activation) of CCOC(F)(c1nnc(-c2ccc3c(c2)N(Cc2ccc(-c4noc(C(F)(F)F)n4)cc2)C(=O)[C@@H](N)CS3(=O)=O)o1)C(F)(F)F (stereo partly drawn) : 543

Entry CC(C)(C#N)c1nnc(-c2ccc3c(c2)N(Cc2ccc(-c4cc(OC(F)(F)F)ccn4)cc2)C(=O)[C@@H](N)CS3(=O)=O)o1 — recorded Emax IL2 (% activation) = 254

Measured Emax IL2 (% activation), COC(=O)N1CC2CC(c3nnc(-c4ccc5c(c4)N(Cc4ccc(-c6noc(C(F)(F)F)n6)cc4)C(=O)[C@@H](N)CS5(=O)=O)o3)(C2)C1 [Example 158] : 345

Please fill in: Emax IL2 (% activation) reported for C[C@@](N)(c1nnc(-c2ccc3c(c2)N(Cc2ccc(-n4nnc(C(F)(F)F)n4)cc2)C(=O)[C@@H](N)CS3(=O)=O)o1)C(F)(F)F = 554

====

- study_target: DGKζ (hDGKzeta(1-928)-N-His) (Homo sapiens, UniProt Q13574)
- Sequence (Q13574 whole entry): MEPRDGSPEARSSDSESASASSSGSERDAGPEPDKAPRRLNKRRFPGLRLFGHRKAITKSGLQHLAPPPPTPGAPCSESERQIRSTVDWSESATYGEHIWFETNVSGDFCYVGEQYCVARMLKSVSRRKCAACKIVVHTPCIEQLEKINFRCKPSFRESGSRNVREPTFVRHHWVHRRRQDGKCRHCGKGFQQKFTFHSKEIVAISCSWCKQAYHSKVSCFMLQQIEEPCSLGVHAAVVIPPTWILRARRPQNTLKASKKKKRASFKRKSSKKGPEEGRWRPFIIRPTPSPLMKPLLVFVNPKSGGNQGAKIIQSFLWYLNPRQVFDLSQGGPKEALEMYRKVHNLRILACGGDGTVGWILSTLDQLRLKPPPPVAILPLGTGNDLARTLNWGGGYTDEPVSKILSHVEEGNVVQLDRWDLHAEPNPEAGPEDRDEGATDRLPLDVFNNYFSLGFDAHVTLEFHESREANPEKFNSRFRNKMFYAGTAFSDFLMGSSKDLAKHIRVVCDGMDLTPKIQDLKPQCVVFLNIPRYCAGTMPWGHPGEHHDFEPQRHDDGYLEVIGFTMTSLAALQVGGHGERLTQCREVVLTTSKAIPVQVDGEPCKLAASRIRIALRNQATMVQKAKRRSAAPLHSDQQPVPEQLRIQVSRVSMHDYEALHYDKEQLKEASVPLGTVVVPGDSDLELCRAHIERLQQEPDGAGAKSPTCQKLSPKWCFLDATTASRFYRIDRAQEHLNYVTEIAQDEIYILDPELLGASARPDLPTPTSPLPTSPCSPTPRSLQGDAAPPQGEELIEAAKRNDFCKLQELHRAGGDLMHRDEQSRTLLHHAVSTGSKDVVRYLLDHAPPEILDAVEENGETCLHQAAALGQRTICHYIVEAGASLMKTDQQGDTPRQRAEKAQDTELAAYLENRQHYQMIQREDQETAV
pIC50: −log10 of the molar value.
The threshold is inclusive: pIC50 of exactly 6 counts as Y; values below receive N.

Reported pIC50 at or above 6? COc1ccc(-c2ccc(CN3C(=O)[C@@H](N)CS(=O)(=O)c4cc(F)c(-c5noc(C6(N)COC6)n5)cc43)cc2)cc1 [Example 8] Y

Could you tell me if the measured pIC50 of CC1(c2nnc(-c3ccc4c(c3)N(Cc3ccc(-c5noc(C(F)(F)F)n5)cc3)C(=O)[C@@H](N)CS4(=O)=O)o2)COC1 [Example 149] reaches 6 or more? N

Tell me whether pIC50 is at least 6 here: COC(=O)N1CC2CC(c3nnc(-c4ccc5c(c4)N(Cc4ccc(-c6ccc(C(F)(F)F)cc6)nc4)C(=O)[C@@H](N)CS5(=O)=O)o3)(C2)C1 [Example 58] N

Given CC(C)(C#N)c1nnc(-c2ccc3c(c2)N(Cc2ccc(-c4ncc(C(F)(F)F)cn4)cc2)C(=O)[C@@H](N)CS3(=O)=O)o1 [Example 127] , state whether its pIC50 is at least 6. N

Threshold query (pIC50 >= 6) on Cn1ccc(-c2ccc(CN3C(=O)[C@@H](N)CS(=O)(=O)c4cc(F)c(-c5nnc(C(C)(C)C)o5)cc43)cc2)n1 [Example 1] Y

Quick check: does Cc1nc(-c2ccc(CN3C(=O)[C@@H](N)CS(=O)(=O)c4ccc(-c5nnc(C(C)(C)C#N)o5)cc43)cc2)ccc1C(F)(F)F [Example 114] have pIC50 greater than or equal to 6? N

Quick check: does CN1CCCC(F)(c2nnc(-c3ccc4c(c3)N(Cc3ccc(-c5ccc(C(F)(F)F)cn5)cc3)C(=O)[C@@H](N)CS4(=O)=O)o2)C1 (stereo partly drawn) [Example 51] have pIC50 greater than or equal to 6? N

Please indicate if the recorded pIC50 for CC(N)(c1nnc(-c2ccc3c(c2)N(Cc2ccc(-c4noc(CC(F)(F)F)n4)cc2)C(=O)[C@@H](N)CS3(=O)=O)o1)C(F)(F)F (stereo partly drawn) [Example 33] meets or exceeds 6. N

Is pIC50 at least 6? Consider COC(=O)N1CC2CC(c3nnc(-c4ccc5c(c4)N(Cc4ccc(-c6ccc(C(F)(F)F)cc6)cc4)C(=O)[C@@H](N)CS5(=O)=O)o3)(C2)C1 [Example 60] N

====

- System: primary human T-cells
- assay_procedure: IL2 secretion measurements (24 h, CD3-stimulated T-cells, PBS counter screen)
- Format: cell-based
- measurement_parameters: CD3 condition; normalised to DMSO (neutral) and 20 μM reference compound A1 = 100%
attribute_measured: Emax IL2 (% activation)
The reply should be a number in % activation, with the unit left off.

GET /value?item= CC(C)(C#N)c1nnc(-c2ccc3c(c2)N(Cc2ccc(-c4cc(C(F)(F)F)ccn4)cc2)C(=O)[C@@H](N)CS3(=O)=O)o1 &field=Emax IL2 (% activation) returns 87

Recorded Emax IL2 (% activation) (compound CCC(O)(c1nnc(-c2ccc3c(c2)N(Cc2ccc(-c4noc(C5CC5)n4)cc2)C(=O)[C@@H](N)CS3(=O)=O)o1)C(F)(F)F (stereo partly drawn) ): 128

The compound CC(C)(C)c1nc(-c2cc3c(cc2F)S(=O)(=O)C[C@H](N)C(=O)N3Cc2ccc(-c3ccc(CO)cc3)nc2)no1 showed Emax IL2 (% activation) equal to 38

====

Let's go through some pIC50 measurements on DGKα (hDGKalpha(1-735)-N-His) (Homo sapiens, UniProt P23743) together.
Sequence (P23743 whole entry): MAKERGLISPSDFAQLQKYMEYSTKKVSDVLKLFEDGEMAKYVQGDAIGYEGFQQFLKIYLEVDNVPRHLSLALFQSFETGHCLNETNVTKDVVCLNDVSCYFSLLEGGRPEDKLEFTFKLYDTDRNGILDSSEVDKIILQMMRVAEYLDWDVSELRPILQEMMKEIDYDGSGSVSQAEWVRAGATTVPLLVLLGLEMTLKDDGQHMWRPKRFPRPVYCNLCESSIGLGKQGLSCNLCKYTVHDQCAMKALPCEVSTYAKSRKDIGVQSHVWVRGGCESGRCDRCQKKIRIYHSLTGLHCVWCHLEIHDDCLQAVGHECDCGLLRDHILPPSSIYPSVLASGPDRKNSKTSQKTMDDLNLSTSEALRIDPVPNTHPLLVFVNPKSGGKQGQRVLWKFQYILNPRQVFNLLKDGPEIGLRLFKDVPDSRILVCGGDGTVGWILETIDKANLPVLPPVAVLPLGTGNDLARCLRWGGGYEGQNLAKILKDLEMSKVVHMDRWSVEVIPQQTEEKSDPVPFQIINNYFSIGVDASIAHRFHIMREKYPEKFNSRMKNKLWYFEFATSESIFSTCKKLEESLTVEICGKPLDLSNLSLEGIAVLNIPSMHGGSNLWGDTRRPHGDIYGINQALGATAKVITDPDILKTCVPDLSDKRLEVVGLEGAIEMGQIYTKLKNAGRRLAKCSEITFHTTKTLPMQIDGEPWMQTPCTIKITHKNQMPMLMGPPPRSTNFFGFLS
pIC50: −log10 of the molar value.

Value of measured pIC50 for the entry CC1(c2nnc(-c3ccc4c(c3)N(Cc3ccc(-c5ccc(C(F)(F)F)cn5)cc3)C(=O)[C@@H](N)CS4(=O)=O)o2)COC1 [Example 150] : < 4.70

pIC50 for CCC(O)(c1nnc(-c2ccc3c(c2)N(Cc2ccc(-c4noc(C(F)(F)F)n4)cc2)C(=O)[C@@H](N)CS3(=O)=O)o1)C(F)(F)F (stereo partly drawn) [Example 95] is 4.72

pIC50 in this record for NC(c1nnc(-c2ccc3c(c2)N(Cc2ccc(-c4noc(C(F)(F)F)n4)cc2)C(=O)[C@@H](N)CS3(=O)=O)o1)C(F)(F)F (stereo partly drawn) [Example 94] : < 4.22

So for N[C@H]1CS(=O)(=O)c2ccc(-c3nnc(C(F)C(F)(F)F)o3)cc2N(Cc2ccc(-c3noc(C4CC4)n3)cc2)C1=O (stereo partly drawn) [Example 168] , the logged pIC50 turned out to be < 4.20

Entry CC(C)(C#N)c1nnc(-c2ccc3c(c2)N(Cc2ccc(-c4ncc(C(F)(F)F)cn4)cc2)C(=O)[C@@H](N)CS3(=O)=O)o1 [Example 127] ; pIC50 = < 4.22

Kindly note the recorded pIC50 for CC(O)(c1nnc(-c2ccc3c(c2)N(Cc2ccc(-c4noc(C5CC5)n4)cc2)C(=O)[C@@H](N)CS3(=O)=O)o1)C(F)(F)F (stereo partly drawn) [Example 170] , which is < 4.20
